Data origin: ChEMBL document CHEMBL5154709

System: Candida albicans
protocolDetails: Antifungal activity against Candida albicans SC5314 assessed as inhibition of fungal growth at 0.5 ug/ml incubated for 48 hrs by M27-A3 based microdilution method relative to control
Format: functional
parameterMeasured: inhibition at 0.5 µg/mL

## Task # inhibition at 0.5 µg/mL lookup, item `O=C1CN=C(c2ccccc2Br)c2cc(F)ccc2N1`
## Result 99.2%

## Task Would you kindly repeat that for C[C@@H]1[C@H](O)[C@@H](C)/C=C/C=C/C=C/C=C/C=C/C=C/C=C/[C@H](O[C@@H]2O[C@H](C)[C@@H](O)[C@H](N)[C@@H]2O)C[C@@H]2O[C@](O)(C[C@@H](O)C[C@@H](O)[C@H](O)CC[C@@H](O)C[C@@H](O)CC(=O)O[C@H]1C)C[C@H](O)[C@H]2C(=O)O [AMPHOTERICIN B] ?
## Result 100%

## Task Moving on to the next compound: `O=C1CN=C(c2ccccc2Br)c2cc(F)ccc2N1CCCSc1nnnn1-c1ccccc1`
## Result 99.8%

## Task Here is the next compound: `O=C1CN=C(c2ccccc2Br)c2cc(F)ccc2N1CCCn1nnc(-c2ccccc2Cl)n1`
## Result 99.3%

====

Attribute: inhibition at 0.0625 µg/mL
Test system: Candida albicans
protocolDetails: Antifungal activity against Candida albicans SC5314 assessed as inhibition of fungal growth at 0.0625 ug/ml incubated for 48 hrs by M27-A3 based microdilution method relative to control
Type: functional
I'd appreciate it if you included the unit after the number.

ClCCCSc1nnnn1-c1ccccc1    98.8%
O=C1CN=C(c2ccccc2Br)c2cc(F)ccc2N1CCCn1nnc(-c2ccccc2)n1    98.6%
COc1ccc(-n2nnnc2SCCCN2C(=O)CN=C(c3ccccc3Br)c3cc(F)ccc32)cc1    98.8%
O=C1CN=C(c2ccccc2Br)c2cc(F)ccc2N1CCCSc1nnnn1-c1ccccc1    99.7%

Turning now to a further record.
## Task Provide value of inhibition at 0.0625 µg/mL for this record tested with Candida albicans: `C[C@@H]1[C@H](O)[C@@H](C)/C=C/C=C/C=C/C=C/C=C/C=C/C=C/[C@H](O[C@@H]2O[C@H](C)[C@@H](O)[C@H](N)[C@@H]2O)C[C@@H]2O[C@](O)(C[C@@H](O)C[C@@H](O)[C@H](O)CC[C@@H](O)C[C@@H](O)CC(=O)O[C@H]1C)C[C@H](O)[C@H]2C(=O)O`
## Result 100%

====

Test system: Candida albicans
protocolDetails: Antifungal activity against Candida albicans SC5314 assessed as inhibition of fungal growth at 16 ug/ml incubated for 48 hrs by M27-A3 based microdilution method relative to control
Type: functional
Each record here notes measured inhibition at 16 µg/mL.
Give the quantity in %, number only.

O=C1CN=C(c2ccccc2Br)c2cc(F)ccc2N1    99.1

## Task Name the recorded inhibition at 16 µg/mL for `Cc1ccc(-c2nnn(CCCN3C(=O)CN=C(c4ccccc4Br)c4cc(F)ccc43)n2)cc1` .
## Result 95.4

## Task Note, next up: `COc1ccc(-n2nnnc2SCCCN2C(=O)CN=C(c3ccccc3Br)c3cc(F)ccc32)cc1`
## Result 98.5

## Task Now consider `ClCCCSc1nnnn1-c1ccccc1` .
## Result 98.9

## Task Again, but for `O=C1CN=C(c2ccccc2Br)c2cc(F)ccc2N1CCCSc1nnnn1-c1ccccc1`
## Result 99.8

## Task Another compound to look at: `COc1ccc(-n2nnnc2SCCCCl)cc1`
## Result 99.8

## Task Moving on to the next compound: `C[C@@H]1[C@H](O)[C@@H](C)/C=C/C=C/C=C/C=C/C=C/C=C/C=C/[C@H](O[C@@H]2O[C@H](C)[C@@H](O)[C@H](N)[C@@H]2O)C[C@@H]2O[C@](O)(C[C@@H](O)C[C@@H](O)[C@H](O)CC[C@@H](O)C[C@@H](O)CC(=O)O[C@H]1C)C[C@H](O)[C@H]2C(=O)O`
## Result 100

## Task Note, next up: `O=C1CN=C(c2ccccc2Br)c2cc(F)ccc2N1CCCn1nnc(-c2ccccc2)n1`
## Result 98.4

====

# reported inhibition at 0.5 µg/mL; entries follow
Tested on: Candida albicans
protocolDetails: Antifungal activity against Candida albicans SC5314 assessed as inhibition of fungal growth at 0.5 ug/ml incubated for 48 hrs by M27-A3 based microdilution method relative to control
Type: functional
API: value field is a number in %; no unit string.

## Task Would you mind telling me what inhibition at 0.5 µg/mL value was observed for `COc1ccc(-n2nnnc2SCCCN2C(=O)CN=C(c3ccccc3Br)c3cc(F)ccc32)cc1` ?
## Result 98.8

## Task And what about the compound `Cc1ccc(-c2nnn(CCCN3C(=O)CN=C(c4ccccc4Br)c4cc(F)ccc43)n2)cc1` ?
## Result 95.8

## Task Item: `O=C1CN=C(c2ccccc2Br)c2cc(F)ccc2N1CCCn1nnc(-c2ccccc2)n1`
## Result 99.3

## Task Please do the same for `O=C1CN=C(c2ccccc2Br)c2cc(F)ccc2N1CCCn1nnc(-c2ccc(Cl)cc2)n1` as well.
## Result 99

## Task Then this compound: `ClCCCSc1nnnn1-c1ccccc1`
## Result 98.4

## Task And the next one, `COc1ccc(-n2nnnc2SCCCCl)cc1` ?
## Result 99.7

====

Test system: Candida albicans
protocolDetails: Antifungal activity against Candida albicans SC5314 assessed as inhibition of fungal growth at 0.0625 ug/ml incubated for 48 hrs by M27-A3 based microdilution method relative to control
Assay type: functional
Reported inhibition at 0.0625 µg/mL values for a set of compounds
Give the value in % but do not write % after it.

COc1ccc(-n2nnnc2SCCCCl)cc1    99.8

## Task Which inhibition at 0.0625 µg/mL is reported for this compound? `Cc1ccc(-c2nnn(CCCN3C(=O)CN=C(c4ccccc4Br)c4cc(F)ccc43)n2)cc1`
## Result 96.5

## Task Input `O=C1CN=C(c2ccccc2Br)c2cc(F)ccc2N1`
## Result 98.7

## Task Also, `O=C1CN=C(c2ccccc2Br)c2cc(F)ccc2N1CCCn1nnc(-c2ccccc2Cl)n1` please.
## Result 99.4

## Task Entry to check: `O=C1CN=C(c2ccccc2Br)c2cc(F)ccc2N1CCCn1nnc(-c2ccc(Cl)cc2)n1`
## Result 99.3

====

System: Candida albicans
protocolDetails: Antifungal activity against Candida albicans SC5314 assessed as inhibition of fungal growth at 16 ug/ml incubated for 18 hrs by M27-A3 based microdilution method relative to control
Type: functional
parameterMeasured: inhibition at 16 µg/mL

Some solved cases for reference:
C[C@@H]1[C@H](O)[C@@H](C)/C=C/C=C/C=C/C=C/C=C/C=C/C=C/[C@H](O[C@@H]2O[C@H](C)[C@@H](O)[C@H](N)[C@@H]2O)C[C@@H]2O[C@](O)(C[C@@H](O)C[C@@H](O)[C@H](O)CC[C@@H](O)C[C@@H](O)CC(=O)O[C@H]1C)C[C@H](O)[C@H]2C(=O)O    100%
O=C1CN=C(c2ccccc2Br)c2cc(F)ccc2N1CCCn1nnc(-c2ccccc2Cl)n1    100%
COc1ccc(-n2nnnc2SCCCCl)cc1    99.9%
COc1ccc(-n2nnnc2SCCCN2C(=O)CN=C(c3ccccc3Br)c3cc(F)ccc32)cc1    98.1%
Cc1ccc(-c2nnn(CCCN3C(=O)CN=C(c4ccccc4Br)c4cc(F)ccc43)n2)cc1    100%
ClCCCSc1nnnn1-c1ccccc1    98.7%

## Task What value of inhibition at 16 µg/mL has been reported for the following molecule? `O=C1CN=C(c2ccccc2Br)c2cc(F)ccc2N1`
## Result 98.9%

## Task Try the molecule `O=C1CN=C(c2ccccc2Br)c2cc(F)ccc2N1CCCSc1nnnn1-c1ccccc1`
## Result 99.8%

## Task Note, next up: `O=C1CN=C(c2ccccc2Br)c2cc(F)ccc2N1CCCn1nnc(-c2ccc(Cl)cc2)n1`
## Result 99.5%

## Task Quick one: `O=C1CN=C(c2ccccc2Br)c2cc(F)ccc2N1CCCn1nnc(-c2ccccc2)n1`
## Result 98.5%
